Listed here: items and their measured log10(IC50).
measurement-target: Human recombinant PDE2A (hPDE2A) (Homo sapiens)
Construct: made in house; host or cells: Sf9 insect cells (baculovirus)
Sequence (O00408 whole entry): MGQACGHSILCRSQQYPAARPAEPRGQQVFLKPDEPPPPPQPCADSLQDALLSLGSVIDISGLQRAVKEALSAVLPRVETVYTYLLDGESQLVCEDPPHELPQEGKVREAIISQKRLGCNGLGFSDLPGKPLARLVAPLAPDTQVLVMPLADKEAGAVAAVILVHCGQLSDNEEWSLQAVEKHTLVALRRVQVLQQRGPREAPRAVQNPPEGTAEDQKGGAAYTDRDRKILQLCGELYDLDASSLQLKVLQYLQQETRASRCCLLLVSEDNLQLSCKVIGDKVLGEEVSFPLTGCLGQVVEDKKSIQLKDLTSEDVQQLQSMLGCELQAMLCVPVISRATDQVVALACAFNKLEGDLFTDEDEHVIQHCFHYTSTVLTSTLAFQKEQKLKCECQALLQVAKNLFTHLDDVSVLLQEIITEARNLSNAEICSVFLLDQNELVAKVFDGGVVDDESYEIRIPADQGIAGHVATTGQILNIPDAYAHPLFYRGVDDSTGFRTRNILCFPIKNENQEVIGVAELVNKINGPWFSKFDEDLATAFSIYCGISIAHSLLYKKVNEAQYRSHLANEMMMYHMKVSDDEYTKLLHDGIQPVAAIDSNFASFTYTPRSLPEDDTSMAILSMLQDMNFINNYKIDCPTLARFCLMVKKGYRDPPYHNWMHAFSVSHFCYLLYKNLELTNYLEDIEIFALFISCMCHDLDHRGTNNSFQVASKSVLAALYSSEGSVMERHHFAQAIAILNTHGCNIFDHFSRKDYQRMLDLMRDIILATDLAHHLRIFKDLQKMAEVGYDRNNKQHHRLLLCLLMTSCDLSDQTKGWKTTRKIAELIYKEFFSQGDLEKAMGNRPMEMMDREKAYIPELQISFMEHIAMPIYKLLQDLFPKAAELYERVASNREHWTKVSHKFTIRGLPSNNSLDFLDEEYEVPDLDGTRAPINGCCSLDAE
measurement-notes: In vitro assay PDE2A (SPA, 3H-cGMP)
Format: biochemical
experimental-parameters: read-out: pIC50 PDE2 (converted)
parameter: log10(IC50) (log10 of the value in nM)

compound | result
CCCOc1ccc(Cl)c(-c2nnc3c(C)nc4ccc(CN5CCC(F)CC5)cc4n23)c1 [Compound B-135] | 1.48
COCCc1cncc(-c2nnc3c(C)nc4ccc(CN5CCOCC5)cc4n23)c1 [Compound B-198] | 1.95
Cc1cncc(-c2nnc3c(C)nc4ccc(C(F)(F)F)cc4n23)c1 [Compound B-162] | 1.83
Cc1ncccc1-c1nnc2c(C)nc3ccc(Br)cc3n12 [Compound B-131] | 1.47
CCOC(=O)c1ccc2nc(C)c3nnc(-c4ccccc4Cl)n3c2c1 [Compound B-1a] | 0.63
CCCCOc1ccc(Cl)c(-c2nnc3c(C)nc4ccc(OCCc5cccnc5)cc4n23)c1 [Compound B-130] | 1.46
COc1ccc(Cl)c(-c2nnc3c(C)nc4ccc(Br)cc4n23)c1 [Compound B-69] | 0.79
Cc1ncccc1-c1nnc2c(C)nc3ccccc3n12 [Compound B-174] | 2.14
COc1ccc(Cl)c(-c2nnc3c(C)nc4ccc(CN5CCC(F)CC5)cc4n23)c1 [Compound B-97] | 1.15
